# TEST_SYSTEM: Sigma non-opioid intracellular receptor 1 (Homo sapiens, UniProt Q99720)
# Sequence (Q99720 whole entry): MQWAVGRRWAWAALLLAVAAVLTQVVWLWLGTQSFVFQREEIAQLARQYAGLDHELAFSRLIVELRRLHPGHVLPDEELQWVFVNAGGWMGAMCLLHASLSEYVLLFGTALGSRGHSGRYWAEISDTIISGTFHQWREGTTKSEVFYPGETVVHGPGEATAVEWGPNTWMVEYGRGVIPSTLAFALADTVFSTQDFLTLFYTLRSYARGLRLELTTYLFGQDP
# PROTOCOL_DETAILS: Displacement of [3H](+)-Pentazocine from sigma 1 receptor in human RPMI8226 cell membranes
Known Ki of a selection of molecules
# number only, unit nM dropped from output

chemical_smiles=O[C@H]1CC[C@H]2CN(CC3CCCCC3)[C@@H]1CN2Cc1ccccc1 measured_parameter=Ki numeric_result=6.4
chemical_smiles=O[C@@H]1C[C@H]2CN(CC3CCCCC3)[C@@H]1CN2Cc1cccc2ccccc12 measured_parameter=Ki numeric_result=7.2
chemical_smiles=O[C@@H]1C[C@H]2CN(CC3CCCCC3)[C@@H]1CN2Cc1ccc(-c2ccccc2)cc1 measured_parameter=Ki numeric_result=73
chemical_smiles=O[C@@H]1C[C@@H]2CN(CC3CCCCC3)[C@H]1CN2Cc1ccc(-c2ccccc2)cc1 measured_parameter=Ki numeric_result=27
chemical_smiles=O[C@H]1C[C@H]2CN(CC3CCCCC3)[C@@H]1CN2Cc1ccc(-c2ccccc2)cc1 measured_parameter=Ki numeric_result=27
chemical_smiles=O[C@H]1C[C@@H]2CN(CC3CCCCC3)[C@H]1CN2Cc1ccc(-c2ccccc2)cc1 measured_parameter=Ki numeric_result=24

What value of Ki has been reported for the following molecule? O[C@@H]1C[C@H]2CN(CC3CCCCC3)[C@@H]1CN2Cc1ccccc1
2.4

What about this molecule? O[C@H]1C[C@H]2CN(CC3CCCCC3)[C@@H]1CN2Cc1cccc2ccccc12
13
